# protocol_notes: Validation screen for small molecules that induce DNA re-replication in SW480 colon adenocarcinoma cells (AID 504364)
# test_settings: DNA re-replication phenotype (high-content imaging); series mostly up to 46.1 µM
Results filed as inconclusive are left out. Active and inactive are the calls of the source. The call rests on the fitted dose curve; in most records, active means well fitted activation curve with a large enough effect; inconclusive means small, poorly fitted or top-dose-only effect; inactive means flat fitted curve, though single readings scatter.
Output constraint: value belongs to active, inactive

Solved cases below.
CCCCCCCC/C=C\CCCCCCCC(=O)NCCO :: inactive
C[C@@H](CN1CCC(Cc2ccccc2)CC1)[C@@H](O)c1ccc(O)cc1 :: inactive
NCCNC(=O)c1ncsc1-c1cccc(F)c1 :: inactive
CN1CCc2cc(NC(=O)Nc3cccnc3)ccc21 :: inactive
CC(C)(C)NCC(O)COc1nsnc1N1CCOCC1 (stereo not given) :: inactive

From here, focus on the item given below.
## Task # fetch the recorded call for CC1CN(S(=O)(=O)c2cccc3cnccc23)CCN1 (stereo not given) here
## Result inactive

====

# system_under_test: Ubiquitin carboxyl-terminal hydrolase 1 (Homo sapiens)
# protocol_notes: Inhibitors of USP1/UAF1: Pilot qHTS (AID 504865); further: nearly all actives have a fitted effect of over 35% in size; further: potency means the concentration at half of the fitted maximal effect
# test_settings: purified USP1/UAF1, Ub-rhodamine cleavage fluorescence; series mostly up to 114 µM
Results filed as inconclusive are left out. Calls of active or inactive are those of the source. The call rests on the fitted dose curve; in most records, active means well fitted inhibition curve with a large enough effect; inconclusive means small, poorly fitted or top-dose-only effect; inactive means flat fitted curve, though single readings scatter.
endpoint: Potency

Examples with answers:
Cc1ccc(C(=O)c2ccc(CC(=O)O)n2C)cc1 :: inactive
C[S+](CC[C@H](N)C(=O)O)C[C@H]1O[C@@H](n2cnc3c(N)ncnc32)[C@H](O)[C@@H]1O (stereo partly specified) :: inactive
Cc1[nH]cnc1CN1CCc2c(c3ccccc3n2C)C1=O :: inactive
CN1C2CCC1CC(OC(=O)C(O)c1ccccc1)C2 (stereo unspecified) :: inactive
NCCSSCCN :: inactive

Batch of 5 compounds: report Potency for each.
1. COc1cc(C(O)CO)ccc1OS(=O)(=O)O (stereo unspecified)
2. N=C(N)N
3. O=C(O)c1cc(O)c(O)c(O)c1
4. Cc1ccc(S(=O)(=O)/C=C/C#N)cc1
5. Cn1ncc(S(=O)(=O)Cc2ccccc2)c(Br)c1=O

## Result
1. inactive
2. inactive
3. inactive
4. inactive
5. 12.6 µM (active)

Batch of 4 compounds: report Potency for each.
1. Ic1ccc(N2CCN(Cc3c[nH]c4ncccc34)CC2)cc1
2. O=C(Nc1ccccc1)c1cc([N+](=O)[O-])ccc1Cl
3. CC1(C)S[C@@H]2[C@H](NC(=O)[C@H](NC(=O)N3CCN(S(C)(=O)=O)C3=O)c3ccccc3)C(=O)N2[C@H]1C(=O)O
4. CN(C)c1ccc(C(=C2C=CC(=[N+](C)C)C=C2)c2ccccc2)cc1

## Result
1. 50.1 µM (active)
2. inactive
3. inactive
4. 50.1 µM (active)

====

# system_under_test: N-terminal Xaa-Pro-Lys N-methyltransferase 1 (Homo sapiens) (UniProt Q9BV86)
# Sequence (Q9BV86 whole entry, looked up): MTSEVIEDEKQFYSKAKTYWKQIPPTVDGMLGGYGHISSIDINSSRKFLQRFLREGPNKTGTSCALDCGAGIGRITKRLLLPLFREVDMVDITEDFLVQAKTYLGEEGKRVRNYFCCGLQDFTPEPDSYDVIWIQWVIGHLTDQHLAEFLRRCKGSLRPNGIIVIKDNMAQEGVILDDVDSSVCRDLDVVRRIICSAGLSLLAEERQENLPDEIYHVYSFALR
# protocol_notes: Confirmatory qHTS for Inhibitors of N-terminal methyltransferase 1 (NTMT1): MTaseGlo Assay (AID 1645874); further: potency means the concentration at half of the fitted maximal effect; nearly all actives have a fitted effect of over 65% in size
# test_settings: NTMT1 enzyme, MTase-Glo SAH luminescence
Records with an inconclusive call do not appear. The source made the active and inactive calls. Calls come from the whole dose curve; as a rule, active = well fitted inhibition curve with a large enough effect; inconclusive = small, poorly fitted or top-dose-only effect; inactive = no such curve, though single readings can be large or run the other way.
endpoint: Potency

Examples with answers:
CN=c1nc(-c2ccccc2)n(-c2ccccc2)s1 :: 0.851 µM (active)
O=c1cc(-c2ccccc2)oc2ccccc12 :: 50.1 µM (active)
N.N.N.N.N.N.N.N.N.N.N.N.N.N.O.O.[Ru+4].[Ru+5].[Ru+5] :: 27.4 µM (active)
Nc1ncnc2c1c(I)cn2[C@@H]1C[C@H](N)[C@@H](O)[C@H]1O :: 3.65 µM (active)

Here is another molecule to look at.
## Task State the recorded Potency for this entry: `Clc1ccccc1-c1nc(-c2ccncc2)no1`
## Result 25.1 µM (active)
